This listing pairs molecules with measured remaining at 1 h, 10 µM.
# experiment-summary: Peptide stability in simulated intestinal fluid (SIF)
# Type: in vitro ADME
# stated-conditions: pig, simulated intestinal fluid (SIF) with porcine pancreatin; 1 h, 37 °C, pH 6.8, porcine pancreatin 10 g/L, 10 µM
*1 amine or outer side, *2 acyl side, *3 side chain or, on linkers, in order; H or OH if unused. Where a SMILES comes first, the peptide text is derived from it. Bridges are numbered along the chain shown (N, C = ends). [ ]: non-standard residue; d: D form. 2Nal = N[C@@H](Cc1ccc2ccccc2c1)C(=O)O; AEF = NCCOc1ccc(C[C@H](N)C(=O)O)cc1; X1 = O=C(Cc1ccc(CN[*:1])cc1)[*:2]; 3Pal = N[C@@H](Cc1cccnc1)C(=O)O; αMeL = CC(C)C[C@](C)(N)C(=O)O; Dab = NCC[C@H](N)C(=O)O

molecule	unit-of-measurement	remaining at 1 h, 10 µM
CC(C)C[C@]1(C)NC(=O)[C@H](Cc2ccc3ccccc3c2)NC(=O)[C@H](Cc2ccc(OCCN)cc2)NC(=O)[C@@H]2CCNC(=O)CC[C@H](NC(=O)[C@H](CO)NC(=O)Cc3ccc(cc3)CNC(=O)CC[C@@H](C(=O)N[C@@H](CCN)C(=O)N[C@@H](Cc3c[nH]cn3)C(=O)N[C@@H](Cc3cccnc3)C(N)=O)NC1=O)C(=O)N[C@@H](Cc1c[nH]c3ccccc13)C(=O)N[C@@H](CCC(N)=O)C(=O)N2 [Compound 12] ([X1]SEWQ[Dab][AEF][2Nal][αMeL]E[Dab]H[3Pal]-NH2; lactam 3-6, N-10)	%	60
CNC(=O)[C@H](Cc1cccnc1)NC(=O)[C@H](Cc1c[nH]cn1)NC(=O)[C@@H]1CCC(=O)NCc2ccc(cc2)CC(=O)N[C@@H](CO)C(=O)N[C@H]2CCC(=O)NCC[C@H](NC(=O)[C@H](CCC(N)=O)NC(=O)[C@H](Cc3c[nH]c4ccccc34)NC2=O)C(=O)N[C@@H](Cc2ccc(OCCN)cc2)C(=O)N[C@@H](Cc2ccc3ccccc3c2)C(=O)N[C@@](C)(CC(C)C)C(=O)N1 [Compound 34] ([X1]SEWQ[Dab][AEF][2Nal][αMeL]EH[3Pal]-NHMe; lactam 3-6, N-10)	%	87
CNC(=O)[C@H](Cc1cccnc1)NC(=O)C1(NC(=O)[C@@H]2CCC(=O)NCc3ccc(cc3)CC(=O)N[C@@H](CO)C(=O)N[C@H]3CCC(=O)NCC[C@H](NC(=O)[C@H](CCC(N)=O)NC(=O)[C@H](Cc4c[nH]c5ccccc45)NC3=O)C(=O)N[C@@H](Cc3ccc(OCCN)cc3)C(=O)N[C@@H](Cc3ccc4ccccc4c3)C(=O)N[C@@](C)(CC(C)C)C(=O)N2)CCOCC1 [Compound 35]	%	110
CC(C)C[C@]1(C)NC(=O)[C@H](Cc2ccc3ccccc3c2)NC(=O)[C@H](Cc2ccc(OCCN)cc2)NC(=O)[C@@H]2CCNC(=O)CC[C@H](NC(=O)[C@H](CO)NC(=O)Cc3ccc(cc3)CNC(=O)CC[C@@H](C(=O)N[C@@H](CCN)C(=O)N[C@@](C)(Cc3cccnc3)C(N)=O)NC1=O)C(=O)N[C@@H](Cc1c[nH]c3ccccc13)C(=O)N[C@@H](CCC(N)=O)C(=O)N2 [Compound 3]	%	115
CNC(=O)[C@H](Cc1cccnc1)NC(=O)[C@H](CCN)NC(=O)[C@@H]1CCC(=O)NCc2ccc(cc2)CC(=O)N[C@@H](C)C(=O)N[C@H]2CCC(=O)NCC[C@H](NC(=O)[C@H](CCC(N)=O)NC(=O)[C@H](Cc3c[nH]c4ccccc34)NC2=O)C(=O)N[C@@H](Cc2ccc(OCCN)cc2)C(=O)N[C@@H](Cc2ccc3ccccc3c2)C(=O)N[C@@](C)(CC(C)C)C(=O)N1 [Compound 20]	%	109
CNC(=O)[C@H](Cc1cccnc1)NC(=O)[C@H](COC)NC(=O)[C@@H]1CCC(=O)NCc2ccc(cc2)CC(=O)N[C@@H](CO)C(=O)N[C@H]2CCC(=O)NCC[C@H](NC(=O)[C@H](CCC(N)=O)NC(=O)[C@H](Cc3c[nH]c4ccccc34)NC2=O)C(=O)N[C@@H](Cc2ccc(OCCN)cc2)C(=O)N[C@@H](Cc2ccc3ccccc3c2)C(=O)N[C@@](C)(CC(C)C)C(=O)N1 [Compound 37]	%	78
CNC(=O)[C@H](Cc1cccnc1)NC(=O)[C@H](CCN)NC(=O)[C@@H]1CCC(=O)NCc2ccc(cc2)CC(=O)N[C@@H](Cc2ccccc2)C(=O)N[C@H]2CCC(=O)NCC[C@H](NC(=O)[C@H](CCC(N)=O)NC(=O)[C@H](Cc3c[nH]c4ccccc34)NC2=O)C(=O)N[C@@H](Cc2ccc(OCCN)cc2)C(=O)N[C@@H](Cc2ccc3ccccc3c2)C(=O)N[C@@](C)(CC(C)C)C(=O)N1 [Compound 21] ([X1]FEWQ[Dab][AEF][2Nal][αMeL]E[Dab][3Pal]-NHMe; lactam 3-6, N-10)	%	53
CNC(=O)[C@H](Cc1cccnc1)NC(=O)[C@H](CCN)NC(=O)[C@@H]1CCC(=O)NCc2ccc(cc2)CC(=O)N[C@@H](C)C(=O)N[C@H]2CCC(=O)NCC[C@H](NC(=O)[C@H](CCC(N)=O)NC(=O)[C@H](Cc3c[nH]c4ccccc34)NC2=O)C(=O)N[C@@H](CCc2ccccc2)C(=O)N[C@@H](Cc2ccc3ccccc3c2)C(=O)NC(C)(C)C(=O)N1 [Compound 41]	%	100
CNC(=O)[C@H](Cc1cccnc1)NC(=O)[C@](C)(CO)NC(=O)[C@@H]1CCC(=O)NCc2ccc(cc2)CC(=O)N[C@@H](CO)C(=O)N[C@H]2CCC(=O)NCC[C@H](NC(=O)[C@H](CCC(N)=O)NC(=O)[C@H](Cc3c[nH]c4ccccc34)NC2=O)C(=O)N[C@@H](Cc2ccc(OCCN)cc2)C(=O)N[C@@H](Cc2ccc3ccccc3c2)C(=O)N[C@@](C)(CC(C)C)C(=O)N1 [Compound 39]	%	100
CC(C)C[C@]1(C)NC(=O)[C@H](Cc2ccc3ccccc3c2)NC(=O)[C@H](Cc2ccc(OCCN)cc2)NC(=O)[C@@H]2CCNC(=O)CC[C@H](NC(=O)[C@H](CO)NC(=O)Cc3ccc(cc3)CNC(=O)CC[C@@H](C(=O)N[C@@H](CCN)C(=O)N[C@@H](Cc3cccnc3)C(=O)N[C@H](Cc3c[nH]cn3)C(N)=O)NC1=O)C(=O)N[C@@H](Cc1c[nH]c3ccccc13)C(=O)N[C@@H](CCC(N)=O)C(=O)N2 [Compound 10] ([X1]SEWQ[Dab][AEF][2Nal][αMeL]E[Dab][3Pal][dH]-NH2; lactam 3-6, N-10)	%	34
